- Tested on: TK-10 renal
- Assay Overview: NCI tumour cell line growth inhibition, 48 h; in the data active means GI50 below about 0.43 µM; inactive means the rest
The categories you may choose from are active, inactive

Query block: Fill in: this test's call for `CN(C)C(=S)NN=C(c1ccccn1)c1ccccn1` is ___
Result block: active

Query block: Fill in: this test's call for `COC(=O)Nc1nc2ccc(Oc3ccc(NC(=O)Nc4cccc(Br)c4)cc3)cc2[nH]1` is ___
Result block: inactive

Query block: Fill in: this test's call for `CCCCCCOc1ccc(/C=N/NC(N)=S)cc1` is ___
Result block: inactive

Query block: Fill in: this test's call for `COc1cc2c(cc1OCCCOC1=C=C=C(c3ccc4c(c3)c3cc(-c5ccc(OCCCOc6cc7c(cc6OC)C(=O)N6CCC[C@H]6C=N7)cc5)ccc3n4S(=O)(=O)c3ccc(C)cc3)C=C1)N=C[C@@H]1CCCN1C2=O` is ___
Result block: inactive

Query block: Fill in: this test's call for `Cn1c(=O)c(Oc2cccc(F)c2)cc2cnc(NC3CCOCC3)nc21` is ___
Result block: inactive

Query block: Fill in: this test's call for `C=C1C(=O)O[C@H]2[C@H]1CC/C(CNC(=O)/C=C/c1cccc(OC)c1)=C\CC[C@@]1(C)O[C@@H]21` is ___
Result block: inactive

Query block: Fill in: this test's call for `C[C@@H]1COCCN1c1nc(-c2cnc(N)cc2C(F)F)nc(N2[C@H](C)COC[C@@H]2C)n1` is ___
Result block: active

Query block: Fill in: this test's call for CC(=O)NC1C(OCc2ccccc2)OC(CO)C(O)C1OCC(=O)NC(C)C(=O)NC(CCC(=O)NCCCCCNc1c2ccccc2nc2cccc([N+](=O)[O-])c12)C(N)=O (stereo not given) is ___
Result block: active

Query block: Fill in: this test's call for O=c1[nH]cnc2c1nnn2C1OC(CO)C(O)C1O (stereo not given) is ___
Result block: inactive

Query block: Fill in: this test's call for `COc1cc(C(=O)/C=C/c2c(-c3ccc(F)cc3)nc3sc(C)cn23)cc(OC)c1OC` is ___
Result block: inactive

Query block: Fill in: this test's call for `O=C(Nc1ncc(Cc2ccccc2)s1)c1ccc2c(c1)OCCCO2` is ___
Result block: inactive

Query block: Fill in: this test's call for `Cc1ccc2c[c]1[Hg][CH2]COS2(=O)=O` is ___
Result block: inactive

Query block: Fill in: this test's call for `Cc1cccc2nc3cccc(C(=O)NCCC[N+](C)(CCCNC(=O)c4cccc5nc6cccc(C)c6nc45)Cc4c([N+](=O)[O-])ncn4C)c3nc12` is ___
Result block: inactive

Query block: Fill in: this test's call for `C[C@]12CC/C(=N\N)C[C@@H]1CC[C@@H]1[C@@H]2CC[C@]2(C)/C(=N/N)CC[C@@H]12` is ___
Result block: inactive

Query block: Fill in: this test's call for `Cc1[nH]c(C(=O)Nc2ccc(C(=O)N3CCNCC3)cc2OC(C)C)c(Cl)c1Cl` is ___
Result block: inactive

====

- Test system: UACC-62 melanoma
- Assay Overview: NCI tumour cell line growth inhibition, 48 h
For each record, write down the corresponding TGI.

Query block: Identify TGI associated with the compound `O=C1CSC2=NCC3(NN12)c1ccccc1-c1ccccc13`
Result block: > 10 µM

Query block: Identify TGI associated with the compound CC1CC[C@@]2(OC1)O[C@H]1C[C@H]3[C@@H]4CC[C@H]5C[C@@H](OC6OC(CO)C(OC7OC(CO)C(OC8OC(CO)C(O)C(OC9OC(C)C(OC%10OC(C)C(O)C(O)C%10O)C(O)C9O)C8OC8OCC(O)C(O)C8O)C(O)C7O)C(O)C6O)CC[C@]5(C)[C@H]4CC(=O)[C@]3(C)[C@H]1[C@@H]2C (stereo partly drawn)
Result block: 32.8 µM

Query block: Identify TGI associated with the compound `ON(CCc1ccncc1)Cc1ccccc1`
Result block: > 100 µM

Query block: Identify TGI associated with the compound `CSc1ccc(-c2cc(-c3ccc(NC(=O)CCCN4CCCC4)cc3)nc(-c3ccc(NC(=O)CCCN4CCCC4)cc3)c2)cc1`
Result block: 32.4 µM

Query block: Identify TGI associated with the compound `CC(C)[C@H]1NC(=O)[C@H]2N=C(O[C@@H]2C)[C@@H]2CCCN2C(=O)[C@H](Cc2ccccc2)NC(=O)[C@@H]2CSC(=N2)[C@@H](Cc2ccccc2)NC(=O)[C@@H]2CSC1=N2`
Result block: > 100 µM

Query block: Identify TGI associated with the compound `CCOC(=O)/C(C#N)=C/c1ccc(CO)o1`
Result block: > 100 µM

Query block: Identify TGI associated with the compound `CCNC(=O)/C=C/CCC#Cc1ccc(-c2ccc(-c3cccs3)s2)s1`
Result block: > 100 µM

Query block: Identify TGI associated with the compound Fc1ccc(C2CC(c3cccc(Nc4ccncc4)c3)=NN2c2cc(Cl)cc(Cl)c2)cc1 (stereo not drawn)
Result block: 3.27 µM
